System: Candida albicans
Assay: Growth inhibition of Candida albicans at 100 ug/ml by cup-plate method
Assay type: functional, organism-based
The source made the active and inactive calls. The rule behind the calls is not given here.
Classes used: active, inactive

| compound | assignedLabel |
| --- | --- |
| CC(=O)N1CCN(c2ccc(OCC3COC(Cn4ccnc4)(c4ccc(Cl)cc4Cl)O3)cc2)CC1 (stereo not given) | active |
| CC1(C)S[C@@H]2[C@H](NC(=O)[C@H](N)c3ccccc3)C(=O)N2[C@H]1C(=O)O | inactive |
| O=C1NC(=O)C(=Cc2c(-c3ccccc3)n(CC(=O)c3ccc(-c4ccccc4)cc3)c3ccccc23)C(=O)N1 | inactive |
| C=CCn1c(-c2ccccc2)c(C=C2C(=O)NC(=O)NC2=O)c2ccccc21 | active |
| COc1ccc(C(=O)Cn2c(-c3ccccc3)c(C=C3C(=O)NC(=O)NC3=O)c3ccccc32)cc1 | active |
| CCn1c(-c2ccccc2)c(C=C2C(=O)NC(=O)NC2=O)c2ccccc21 | active |
| O=C1NC(=O)C(=Cc2c(-c3ccccc3)n(CC(=O)c3ccc(Br)cc3)c3ccccc23)C(=O)N1 | active |
| CCCCn1c(-c2ccccc2)c(C=C2C(=O)NC(=O)NC2=O)c2ccccc21 | active |
| O=C1NC(=O)C(=Cc2c(-c3ccccc3)n(CC(=O)c3ccc(Cl)cc3)c3ccccc23)C(=O)N1 | active |
| O=C1NC(=O)C(=Cc2c(-c3ccccc3)n(CC(=O)c3ccccc3)c3ccccc23)C(=O)N1 | inactive |

###

System: Pseudomonas aeruginosa
Experiment: Growth inhibition of Pseudomonas aeruginosa at 100 ug/ml by cup-plate method
Assay type: functional, organism-based
Calls of active or inactive are those of the source. No cut-off for these calls is given here.
reportedEndpoint: growth inhibition (GI)

| compoundStructure | systemUnderTest | assayValue |
| --- | --- | --- |
| COc1ccc(C(=O)Cn2c(-c3ccccc3)c(C=C3C(=O)NC(=O)NC3=O)c3ccccc32)cc1 | Pseudomonas aeruginosa | Active |
| O=C1NC(=O)C(=Cc2c(-c3ccccc3)n(CC(=O)c3ccc(Br)cc3)c3ccccc23)C(=O)N1 | Pseudomonas aeruginosa | Active |
| O=C1NC(=O)C(=Cc2c(-c3ccccc3)n(CC(=O)c3ccccc3)c3ccccc23)C(=O)N1 | Pseudomonas aeruginosa | Active |
